compounds and their reported GI50
Tested on: DLD-1
Assay: NCI tumour cell line growth inhibition, 48 h
The source made the active and inactive calls. No stated cut-off is given here; in the data, active = GI50 up to about 1.1 µM and inactive = higher.

{"compound": "O=c1cc(-c2ccc(Cl)cc2)oc2cc(OCCCOc3ccc4c(=O)cc(-c5ccc(Cl)cc5)oc4c3)ccc12", "readoutType": "GI50", "measured": "> 100 µM (inactive)"}
{"compound": "COc1ccc([C@H]2CC3C(=O)N(c4ccc(OC)cc4)C(=O)C3c3[nH]c4ccccc4c32)cc1 (some centres not stated)", "readoutType": "GI50", "measured": "93.8 µM (inactive)"}
{"compound": "CNc1ccc2ncccc2c1[N+](=O)[O-]", "readoutType": "GI50", "measured": "> 100 µM (inactive)"}

Record summary for `CCOC(=O)C(=O)Nc1c(CC)cccc1C(C)C` : reported GI50 = > 100 µM (inactive)

Record summary for `CC(C)(C)/N=C/N1C=Cc2nc3ccccc3cc2C1` : reported GI50 = 34.1 µM (inactive)

Record summary for `O=CC[C@H]1CCc2ccccc2C12CCC(=O)CC2` : reported GI50 = 60.7 µM (inactive)

Record summary for `CCSc1nnc(-c2ccccc2)nc1Cc1ccc(OC)cc1` : reported GI50 = > 100 µM (inactive)

Record summary for C1CN(P2(N3CC3)=NP(N3CC3)(N3CC3)=NP(N3CC3)(N3CC3)=N2)CCO1 (configuration not stated) [FOTRETAMINE] : reported GI50 = > 53.5 µM (inactive)

// provenance: ChEMBL document CHEMBL1201862
